Tested on: DU-145 prostate
experimental-protocol: NCI-60 one-dose screen, 48 h (100 = growth as untreated, 0 = no growth, -100 = all killed)
conditions-used: 10 µM unless noted
This is part of a sample that, as a whole, favours compounds with a hit. Of some 83,000 tested, about 20% had one in any assay. Active and inactive are the calls of the source. How the source made its calls: active means growth percent below 10; inactive means the rest.
assay-readout: growth

Cn1c(N2N=C(c3ccc(Cl)cc3)CC2c2ccccc2)nc(-c2ccccc2)c(C#N)c1=O (stereo not given); 89.4% (inactive)
CCCCOP(=O)(OCCCC)C(C(=O)OCC)C(CC(=O)OCC)C(=O)OCC (stereo not given); 122% (inactive)
O=C(/C=C/c1cccc(O)c1)c1cccc(-n2cc(-c3ccccc3)[nH]c2=O)c1; -16.9% (active)
O=C(c1ccc(N2CCOCC2)cc1[N+](=O)[O-])N1CCOCC1; 114% (inactive)
CCN1CC2=C(Nc3nc(SC)[nH]c(=O)c3C2c2cc(OC)c(OC)c(OC)c2)/C(=C/c2cc(OC)c(OC)c(OC)c2)C1 (stereo not given); 112% (inactive)
NC(=O)c1cc(Cl)ccc1NC(=O)c1ccccc1-c1ccccc1; -8.79% (active)
COC(=O)[C@H](Cc1cn(C)cn1)NC(=O)[C@H](C)NC(=O)Nc1cc(C(F)(F)F)cc(C(F)(F)F)c1; -80.3% [100 µM] (active)
N/C(=N\c1nc2ccccc2s1)NC(=O)Nc1ccccc1Cl; 21.8% (inactive)
c1ccc(-c2n(Cc3ccc4ccccc4c3)cc[n+]2Cc2ccc3ccccc3c2)cc1; 4.64% (active)
Cc1cc(Br)c(C)cc1Br; 102% (inactive)

* * *

Test system: TK-10 renal
experimental-protocol: NCI-60 one-dose screen, 48 h (100 = growth as untreated, 0 = no growth, -100 = all killed)
conditions-used: 10 µM unless noted
The panel holds about 83,000 compounds, 20% with a hit somewhere; the sample as a whole holds those more often. Calls of active or inactive are those of the source. The calls were made as follows: active = growth percent below 10; inactive = the rest.
Measured growth, listed per entry.
assay-readout: growth

COc1ccc2c3c(ccc2c1)C(=O)/C(=C\O)CC3; 93.4% (inactive)
Nc1ncnc2c1CN(Cc1ccccc1)CC2; 108% (inactive)
c1ccc(COc2ccc(Nc3ncnc4c3cnn4-c3ccccc3)cc2)cc1; 111% (inactive)
Cc1cn(C(C=O)OC(C=O)CO)c(=O)[nH]c1=O (stereo unspecified); 103% (inactive)
O=C(/C=C/c1ccc([N+](=O)[O-])cc1)c1ccc2c3c(cccc13)CC2; 107% (inactive)
COc1cc(/C(Cl)=C/C=C/C(=O)c2c(C)[n+]([O-])c3ccc(Cl)cc3[n+]2[O-])cc(OC)c1OC; 71.6% (inactive)

* * *

Test system: HCC-2998 colon
experimental-protocol: NCI-60 one-dose screen, 48 h (100 = growth as untreated, 0 = no growth, -100 = all killed)
conditions-used: 10 µM unless noted
Compounds without any hit were thinned out: in the full panel of roughly 83,000, 20% have a hit. Calls of active or inactive are those of the source. The calls were made as follows: active = growth percent below 10; inactive = the rest.
Measured growth, listed per entry.
assay-readout: growth

O=C(Nc1ccccc1)c1cc(-n2cnc([N+](=O)[O-])c2)cc(-n2cnc([N+](=O)[O-])c2)n1; 65.2% (inactive)
N#Cc1c(-c2ccccc2)cc(-c2ccccc2)n(CCCCCCC(=O)O)c1=O; 111% (inactive)
CCOc1cc(/C=C/C(=O)C(C(=O)/C=C/c2ccc(OC(=O)CNc3nc4ccccc4[nH]3)c(OCC)c2)C(=O)CNc2nc3ccccc3[nH]2)ccc1OC(=O)CNc1nc2ccccc2[nH]1; -41.5% (active)
O=[N+]([O-])c1ccc2[nH]cc(-c3c4ccccc4cc4[nH]c5ccc([N+](=O)[O-])cc5c34)c2c1; 57.6% (inactive)
O=C(NN1C(=O)c2cc(C(=O)O)c(C(=O)O)cc2C1=O)c1ccncc1; 103% (inactive)
C#C[C@]1(O)CCC2C3CCc4cc(O)ccc4C3CC[C@@]21C (some centres undefined); 61% (inactive)
COC(=O)CC1=C(c2ccc([N+](=O)[O-])cc2)CCC1=O; 109% (inactive)
Cc1sc2nc(N3CCCCC3)[nH]c(=O)c2c1C; 98% (inactive)
O=C(CSc1nnc(-c2cc(-c3ccccc3)nc3ccccc23)o1)c1ccc(Br)cc1; 113% (inactive)
CCOC(=O)Nc1ccc2c3c(cccc13)-c1ccccc1-2; 41.2% (inactive)
COC(=O)[C@H](Cc1cn(C)cn1)NC(=O)[C@H](Cc1ccccc1)NC(=O)Nc1cc(C(F)(F)F)cc(C(F)(F)F)c1; -86.9% [100 µM] (active)
CCCCCCCCCCNCCSS(=O)(=O)O; 76.4% (inactive)
O=C1c2cccc3c([N+](=O)[O-])ccc(c23)C(=O)N1CCCCl; -91.9% [100 µM] (active)
O=CN1N=C(c2ccc(Nc3ccnc4cc(Cl)ccc34)cc2)CC1c1ccc(Cl)cc1 (centres undefined); -20.4% (active)
CC(C)Cn1cnc2c(NCn3nc(-c4cc(Cl)cc(Cl)c4Cl)n(/N=C/c4ccc(Cl)cc4)c3=S)nc3ccccc3c21; 80.6% (inactive)
O=[N+]([O-])c1ccc(N=Nc2c(Cl)cc(O)cc2Cl)cc1; 5.82% (active)
Cc1n(Cc2ccc3ccccc3c2)cc[n+]1Cc1ccc2ccccc2c1; 7.45% (active)
O=C(/C=C/c1ccc([N+](=O)[O-])cc1)c1ccc2c3c(cccc13)CC2; 79.3% (inactive)
CC(C)=CCCC(C)c1ccc(C)c2c1OCN(CC1CCNCC1)C2 (centres undefined); -82.1% (active)
